# assayRemarks: in vitro
# conditionsUsed: mouse, microsomes
Where a SMILES comes first, the peptide text is derived from it. [ ]: non-standard residue; d: D form. NMeY = CN[C@@H](Cc1ccc(O)cc1)C(=O)O; NMeL = CN[C@@H](CC(C)C)C(=O)O; dNMeL = CN[C@H](CC(C)C)C(=O)O; Abu = CC[C@H](N)C(=O)O
readoutLabel: microsomal CLint (µL/min/mg)
Quick note: give the figure in µL/min/mg, leave out the unit.

query: Query: microsomal CLint; subject: CC(C)C[C@@H]1NC(=O)[C@H](Cc2ccc(O)cc2)NC(=O)[C@H]2CCCN2C(=O)[C@H](CC(C)C)NC(=O)[C@H](CC(C)C)NC(=O)[C@@H](CC(C)C)NC1=O [(1), [Tyr-Leu-D-Leu-Leu-Leu-D-Pro-]] (cyclo(LL[dP]YL[dL]))
result: 95

query: What measured microsomal CLint goes with CC[C@@H]1NC(=O)[C@H]2CCCN2C(=O)[C@H](CC(C)C)NC(=O)[C@H](CC(C)C)N(C)C(=O)[C@@H](CC(C)C)N(C)C(=O)[C@H](CC(C)C)NC1=O [(4), [Abu-Leu-NMe-D-Leu-NMe-Leu-Leu-D-Pro]] (cyclo([Abu]L[dNMeL][NMeL]L[dP])) ?
result: 324

query: Consider the molecule CC(C)C[C@@H]1NC(=O)[C@H](Cc2ccc(O)cc2)N(C)C(=O)[C@H]2CCCN2C(=O)[C@H](CC(C)C)NC(=O)[C@H](CC(C)C)N(C)C(=O)[C@@H](CC(C)C)N(C)C1=O [(2)] (cyclo(L[dNMeL][NMeL]L[dP][NMeY])) and give its measured microsomal CLint.
result: 63

query: Recorded microsomal CLint of CC(C)C[C@@H]1NC(=O)[C@H](C)NC(=O)[C@H]2CCCN2C(=O)[C@H](CC(C)C)NC(=O)[C@H](CC(C)C)N(C)C(=O)[C@@H](CC(C)C)N(C)C1=O [(5), [Ala-Leu-NMe-D-Leu-NMe-Leu-Leu-D-Pro]] (cyclo(AL[dNMeL][NMeL]L[dP])) , please.
result: 654

query: What value of measured microsomal CLint is listed for CC(C)C[C@@H]1NC(=O)[C@H](Cc2ccccc2)NC(=O)[C@H]2CCCN2C(=O)[C@H](CC(C)C)NC(=O)[C@H](CC(C)C)N(C)C(=O)[C@@H](CC(C)C)N(C)C1=O [(3), [Phe-Leu-NMe-D-Leu-NMe-Leu-Leu-D-Pro]] (cyclo(FL[dNMeL][NMeL]L[dP])) ?
result: 488

---

# assayRemarks: physchem
# conditionsUsed: pH 6.8, thermodynamic from solid
Where a SMILES comes first, the peptide text is derived from it. [ ]: non-standard residue; d: D form. NMeY = CN[C@@H](Cc1ccc(O)cc1)C(=O)O; NMeL = CN[C@@H](CC(C)C)C(=O)O; dNMeL = CN[C@H](CC(C)C)C(=O)O; Abu = CC[C@H](N)C(=O)O
readoutLabel: solubility thermodynamic (µM)
Entry rule: numbers only, all in µM.

query: Fill blank: measured solubility thermodynamic of the compound CC(C)C[C@@H]1NC(=O)[C@H](Cc2ccc(O)cc2)NC(=O)[C@H]2CCCN2C(=O)[C@H](CC(C)C)NC(=O)[C@H](CC(C)C)NC(=O)[C@@H](CC(C)C)NC1=O [(1), [Tyr-Leu-D-Leu-Leu-Leu-D-Pro-]] (cyclo(LL[dP]YL[dL])) is ____.
result: 151

query: Suppose we examine the compound CC[C@@H]1NC(=O)[C@H]2CCCN2C(=O)[C@H](CC(C)C)NC(=O)[C@H](CC(C)C)N(C)C(=O)[C@@H](CC(C)C)N(C)C(=O)[C@H](CC(C)C)NC1=O [(4), [Abu-Leu-NMe-D-Leu-NMe-Leu-Leu-D-Pro]] (cyclo([Abu]L[dNMeL][NMeL]L[dP])) ; what solubility thermodynamic value has been reported?
result: 602

query: Which solubility thermodynamic reading was recorded for the compound CC(C)C[C@@H]1NC(=O)[C@H](Cc2ccccc2)NC(=O)[C@H]2CCCN2C(=O)[C@H](CC(C)C)NC(=O)[C@H](CC(C)C)N(C)C(=O)[C@@H](CC(C)C)N(C)C1=O [(3), [Phe-Leu-NMe-D-Leu-NMe-Leu-Leu-D-Pro]] (cyclo(FL[dNMeL][NMeL]L[dP])) ?
result: 30

query: What does the record list as solubility thermodynamic for CC(C)C[C@@H]1NC(=O)[C@H](Cc2ccc(O)cc2)N(C)C(=O)[C@H]2CCCN2C(=O)[C@H](CC(C)C)NC(=O)[C@H](CC(C)C)N(C)C(=O)[C@@H](CC(C)C)N(C)C1=O [(2)] (cyclo(L[dNMeL][NMeL]L[dP][NMeY])) ?
result: 26

---

# conditionsUsed: rat, in vivo, po, 3 mg/kg, Portal vein (AuC)
Where a SMILES comes first, the peptide text is derived from it. [ ]: non-standard residue; d: D form. NMeL = CN[C@@H](CC(C)C)C(=O)O; dNMeL = CN[C@H](CC(C)C)C(=O)O; Abu = CC[C@H](N)C(=O)O
readoutLabel: AUC

query: # input molecule: CC(C)C[C@@H]1NC(=O)[C@H](C)NC(=O)[C@H]2CCCN2C(=O)[C@H](CC(C)C)NC(=O)[C@H](CC(C)C)N(C)C(=O)[C@@H](CC(C)C)N(C)C1=O [(5), [Ala-Leu-NMe-D-Leu-NMe-Leu-Leu-D-Pro]] (cyclo(AL[dNMeL][NMeL]L[dP])) ; wanted: its AUC
result: 0.449 µM·h

query: Which AUC value is on record for CC[C@@H]1NC(=O)[C@H]2CCCN2C(=O)[C@H](CC(C)C)NC(=O)[C@H](CC(C)C)N(C)C(=O)[C@@H](CC(C)C)N(C)C(=O)[C@H](CC(C)C)NC1=O [(4), [Abu-Leu-NMe-D-Leu-NMe-Leu-Leu-D-Pro]] (cyclo([Abu]L[dNMeL][NMeL]L[dP])) ?
result: 1.84 µM·h

---

# assayRemarks: in vivo
# conditionsUsed: male, C57BL/6, mouse, po
Where a SMILES comes first, the peptide text is derived from it. [ ]: non-standard residue; d: D form. NMeL = CN[C@@H](CC(C)C)C(=O)O; dNMeL = CN[C@H](CC(C)C)C(=O)O; Abu = CC[C@H](N)C(=O)O
Task for the reader: assign each of the following compounds its reported bioavailability.

query: Would you kindly share the measured bioavailability for CC[C@@H]1NC(=O)[C@H]2CCCN2C(=O)[C@H](CC(C)C)NC(=O)[C@H](CC(C)C)N(C)C(=O)[C@@H](CC(C)C)N(C)C(=O)[C@H](CC(C)C)NC1=O [(4), [Abu-Leu-NMe-D-Leu-NMe-Leu-Leu-D-Pro]] (cyclo([Abu]L[dNMeL][NMeL]L[dP])) ?
result: 39%

query: bioavailability lookup needed for CC(C)C[C@@H]1NC(=O)[C@H](C)NC(=O)[C@H]2CCCN2C(=O)[C@H](CC(C)C)NC(=O)[C@H](CC(C)C)N(C)C(=O)[C@@H](CC(C)C)N(C)C1=O [(5), [Ala-Leu-NMe-D-Leu-NMe-Leu-Leu-D-Pro]] (cyclo(AL[dNMeL][NMeL]L[dP])) , thanks.
result: 23%

---

# conditionsUsed: mouse, microsomes
Where a SMILES comes first, the peptide text is derived from it. [ ]: non-standard residue; d: D form. NMeL = CN[C@@H](CC(C)C)C(=O)O; dNMeL = CN[C@H](CC(C)C)C(=O)O; Abu = CC[C@H](N)C(=O)O
readoutLabel: clearance in the MLM assay (in words)

[[record]]
compound = "CC(C)C[C@@H]1NC(=O)[C@H](C)NC(=O)[C@H]2CCCN2C(=O)[C@H](CC(C)C)NC(=O)[C@H](CC(C)C)N(C)C(=O)[C@@H](CC(C)C)N(C)C1=O [(5), [Ala-Leu-NMe-D-Leu-NMe-Leu-Leu-D-Pro]] (cyclo(AL[dNMeL][NMeL]L[dP]))"
measured = "very high CL"

[[record]]
compound = "CC[C@@H]1NC(=O)[C@H]2CCCN2C(=O)[C@H](CC(C)C)NC(=O)[C@H](CC(C)C)N(C)C(=O)[C@@H](CC(C)C)N(C)C(=O)[C@H](CC(C)C)NC1=O [(4), [Abu-Leu-NMe-D-Leu-NMe-Leu-Leu-D-Pro]] (cyclo([Abu]L[dNMeL][NMeL]L[dP]))"
measured = "very high CL"

[[record]]
compound = "CC(C)C[C@@H]1NC(=O)[C@H](Cc2ccccc2)NC(=O)[C@H]2CCCN2C(=O)[C@H](CC(C)C)NC(=O)[C@H](CC(C)C)N(C)C(=O)[C@@H](CC(C)C)N(C)C1=O [(3), [Phe-Leu-NMe-D-Leu-NMe-Leu-Leu-D-Pro]] (cyclo(FL[dNMeL][NMeL]L[dP]))"
measured = "very high CL"

